Recorded values, source patent US7138246B2.

# maps each entry to its pIC50
system: 17β-HSD3 (Homo sapiens, UniProt P37058)
Sequence (P37058 whole entry): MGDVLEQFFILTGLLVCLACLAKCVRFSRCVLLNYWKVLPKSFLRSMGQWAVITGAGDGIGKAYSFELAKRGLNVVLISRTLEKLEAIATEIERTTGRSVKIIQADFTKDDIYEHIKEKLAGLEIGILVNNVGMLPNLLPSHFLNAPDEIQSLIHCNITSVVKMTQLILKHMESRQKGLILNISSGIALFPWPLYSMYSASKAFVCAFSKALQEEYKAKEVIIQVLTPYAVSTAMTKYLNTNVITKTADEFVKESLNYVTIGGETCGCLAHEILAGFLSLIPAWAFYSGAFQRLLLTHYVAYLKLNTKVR
experimentalDetails: 17β-HSD3 SEAP assay (PSA reporter) in MDA MB 453/17β-HSD3 cells
Type: cell-based
Set-up: expressed in transfected cells
particulars: MDA-MB453-17β-HSD3 cells, PSA-SEAP reporter, FIG. 5C; read-out: IC50, 17β-HSD3 cell based activity
Experimental: Cultured MDA MB 453/17β-HSD3 cells were trypsinized, spun at 1000 rpm for 10 minutes, and resuspended in DMEM/10% cFBS supplemented with 5 mM BES at a concentration of 4×10^7 cells per mL. […] Plates were then read using a Packard Instruments TopCount with luminescent detection and signal was captured for 10 seconds per well and photon emission (cps) was averaged. […]
pIC50: −log10 of the molar value.
quantityMeasured: pIC50

compound: C[C@]12C=CC(=O)C=C1C(=O)C[C@@H]1[C@@H]2CC[C@]2(C)C(=O)CC[C@@H]12 [1,4-androstadiene-1,6,17-trione]
system: 17β-HSD3 (Homo sapiens, UniProt P37058)
measuredValue: 5.80
--
compound: CC1(C)[C@@H](O)CC[C@]2(C)[C@H]3C(=O)C=C4[C@@H]5C[C@@](C)(C(=O)O)CC[C@]5(C)CC[C@@]4(C)[C@]3(C)CC[C@@H]12 [18β-glycyrrhetinic acid]
system: 17β-HSD3 (Homo sapiens, UniProt P37058)
measuredValue: 5.42
